The entries below are paired with their reported Kd.
Molecular target: T1, soluble hG-CSFR: amino acids 25-335 of Homo sapiens G-CSFR with mutations C78A, C163S and C228S and a … (Homo sapiens, UniProt Q99062 25-335)
T1 chain: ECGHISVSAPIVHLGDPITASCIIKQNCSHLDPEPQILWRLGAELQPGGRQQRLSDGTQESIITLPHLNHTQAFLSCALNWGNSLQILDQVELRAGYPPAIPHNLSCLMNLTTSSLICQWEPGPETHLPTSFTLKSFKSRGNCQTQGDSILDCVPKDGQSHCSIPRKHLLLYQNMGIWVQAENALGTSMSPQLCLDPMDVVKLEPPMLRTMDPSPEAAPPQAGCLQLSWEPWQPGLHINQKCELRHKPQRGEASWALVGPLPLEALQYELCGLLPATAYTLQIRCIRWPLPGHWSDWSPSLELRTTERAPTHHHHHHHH
Assay: SPR (Biacore), mAb captured by anti-human IgG, soluble hG-CSFR injected

Use the examples below as a reference point.
Requested field: Kd. Item: C1.2G-877 (antibody, human IgG4, V domains shown, HCDR3 wt (VH of C1.2G); also called antibody 877) VH: EVQLLESGGGLVQPGGSLRLSCAASGFTFSLYWMGWVRQAPGKGLEWVSSISSSGGVTPYADSVKGRFTISRDNSKNTLYLQMNSLRAEDTAVYYCAKLGELGWFDPWGQGTLVTVSS VL: DIQMTQSPSSLSASVGDRVTITCRASQGISSYLNWYQQKPGKAPKLLIYYASNLQNGVPSRFSGSGSGTDFTLTISSLQPEDFATYYCQQSFRYPFYFGGGTKVEIK
508 pM

Now consider C1.2G-56 (antibody, human IgG4, V domains shown, HCDR3 wt (VH of C1.2G); also called antibody 56) VH: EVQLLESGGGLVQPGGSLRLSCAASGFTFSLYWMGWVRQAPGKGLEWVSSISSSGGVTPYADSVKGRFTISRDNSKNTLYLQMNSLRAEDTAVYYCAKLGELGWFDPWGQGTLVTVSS VL: DIQMTQSPSSLSASVGDRVTITCRASQGISSYLNWYQQKPGKAPKLLIYYASNLQNGVPSRFSGSGSGTDFTLTISSLQPEDFATYYCQQSYMYPIKFGGGTKVEIK and answer again.
99.3 pM

New cases:
Requested field: Kd. Item: C1.2G-973 (antibody, human IgG4, V domains shown, also called antibody 973) VH: EVQLLESGGGLVQPGGSLRLSCAASGFTFSLYWMGWVRQAPGKGLEWVSSISSSGGVTPYADSVKGRFTISRDNSKNTLYLQMNSLRAEDTAVYYCAKLGELGQMVYWGQGTLVTVSS VL: DIQMTQSPSSLSASVGDRVTITCRASQGISSYLNWYQQKPGKAPKLLIYYASNLQNGVPSRFSGSGSGTDFTLTISSLQPEDFATYYCQQSFKYPMTFGGGTKVEIK
230 pM
